Data provenance is patent US20260297080A1.

Target: CDK2/Cyclin E1 (Homo sapiens)
Assay: CDK2/Cyclin E1 Biochemical Assay (TR-FRET), 0.060 mM ATP
Settings: 0.15 μM Rb (Ser780)-biotin substrate, pH7.0, 60 min preincubation, 120 min reaction, room temperature
pIC50: −log10 of the molar value.
READOUT_NAME: pIC50

a = CC[C@H](C)NC(=O)O[C@H]1CC[C@@H](c2cc(Nc3ccc4c(c3F)CN(C3COC3)S4(=O)=O)n[nH]2)C1 (single isomer, unassigned) [Example 134b]
b = CC(C)NC(=O)O[C@H]1CC[C@@H](c2cc(Nc3ccc4c(c3F)CS(=O)(=O)N4CC(F)(F)F)n[nH]2)C1 (single isomer, unassigned) [Example 263b]
c = COc1cc2c(cc1Nc1cc([C@@H]3CC[C@H](OC(=O)NC(C)C)C3)[nH]n1)S(=O)(=O)NC2(C)C (relative stereo) [Example 183]
d = CC(C)NC(=O)O[C@H]1CC[C@@H](c2cc(Nc3ccc4c(c3)CS(=O)(=O)N4CC3CCC3)n[nH]2)C1 (relative stereo) [Example 211]
e = CC[C@H](C)NC(=O)O[C@H]1CC[C@@H](c2cc(Nc3ccc4c(c3F)CN(C3CC3)S4(=O)=O)n[nH]2)C1 (single isomer, unassigned) [Example 117a]
Arrange by pIC50, high to low. // format: requested-order list of labels
a, e, b, d, c

###

Biological target: CDK1/Cyclin B1 (Homo sapiens, UniProt P06493)
Sequence (P06493 whole entry): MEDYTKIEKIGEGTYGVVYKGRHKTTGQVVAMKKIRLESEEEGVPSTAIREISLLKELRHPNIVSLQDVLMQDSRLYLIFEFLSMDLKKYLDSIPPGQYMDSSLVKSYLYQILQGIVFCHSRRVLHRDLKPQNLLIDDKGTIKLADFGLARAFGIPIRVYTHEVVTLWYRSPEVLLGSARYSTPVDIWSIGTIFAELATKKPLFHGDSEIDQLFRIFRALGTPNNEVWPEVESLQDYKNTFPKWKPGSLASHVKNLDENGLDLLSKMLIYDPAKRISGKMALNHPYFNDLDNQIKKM
Sequence (P14635 whole entry partner): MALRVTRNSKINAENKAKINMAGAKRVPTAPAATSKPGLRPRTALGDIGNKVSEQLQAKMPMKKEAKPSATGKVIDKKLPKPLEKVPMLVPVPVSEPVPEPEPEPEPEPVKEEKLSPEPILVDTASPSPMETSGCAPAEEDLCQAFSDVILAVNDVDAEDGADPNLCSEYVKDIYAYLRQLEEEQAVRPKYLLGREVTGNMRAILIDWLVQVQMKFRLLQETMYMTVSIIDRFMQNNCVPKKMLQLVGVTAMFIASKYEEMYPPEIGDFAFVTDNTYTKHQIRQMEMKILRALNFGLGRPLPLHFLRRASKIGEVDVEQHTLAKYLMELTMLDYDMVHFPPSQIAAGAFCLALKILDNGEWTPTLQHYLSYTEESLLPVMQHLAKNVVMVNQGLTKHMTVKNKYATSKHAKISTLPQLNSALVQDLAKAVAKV
Assay: CDK1/Cyclin B1 Biochemical Assay (TR-FRET), 0.015 mM ATP
Conditions: 0.15 μM Rb (Ser780)-biotin substrate, pH7.0, 60 min preincubation, 120 min reaction, room temperature
READOUT_NAME: IC50 (nM)

[
  {
    "MOLECULE": "CC(C)NC(=O)O[C@H]1CC[C@@H](c2cc(Nc3ccc4c(c3F)CN(C3CCC3O)S4(=O)=O)n[nH]2)C1 (single isomer, unassigned) [Example 103]",
    "TESTED_SYSTEM": "CDK1/Cyclin B1 (Homo sapiens, UniProt P06493)",
    "READOUT_UNITS": "nM",
    "RESULT_NUMBER": 350
  },
  {
    "MOLECULE": "CC(C)NC(=O)O[C@H]1CC[C@@H](c2cc(Nc3ccc4c(c3F)C(F)(F)S(=O)(=O)N4)n[nH]2)C1 (relative stereo)",
    "TESTED_SYSTEM": "CDK1/Cyclin B1 (Homo sapiens, UniProt P06493)",
    "READOUT_UNITS": "nM",
    "RESULT_NUMBER": 1580
  },
  {
    "MOLECULE": "[2H]C([2H])([2H])N1Cc2c(ccc(Nc3cc([C@@H]4CC[C@H](OC(=O)N[C@@H](C)CC)C4)[nH]n3)c2F)S1(=O)=O (relative stereo)",
    "TESTED_SYSTEM": "CDK1/Cyclin B1 (Homo sapiens, UniProt P06493)",
    "READOUT_UNITS": "nM",
    "RESULT_NUMBER": 152
  },
  {
    "MOLECULE": "CC(C)NC(=O)O[C@@H]1CC[C@H](c2cc(Nc3ccc4c(c3)CS(=O)(=O)N4C)n[nH]2)C1 (single isomer, unassigned) [Example 220a]",
    "TESTED_SYSTEM": "CDK1/Cyclin B1 (Homo sapiens, UniProt P06493)",
    "READOUT_UNITS": "nM",
    "RESULT_NUMBER": 56
  }
]

1 = O=C(NCCC(F)(F)F)O[C@H]1CC[C@@H](c2cc(Nc3ccc4c(c3F)CNS4(=O)=O)n[nH]2)C1 (racemic) [Example 154]
2 = CC(C)NC(=O)O[C@H]1CC[C@@H](c2cc(Nc3cc4c(cc3F)S(=O)(=O)N(CCO)C4)n[nH]2)C1 (relative stereo)
Hey, which is lower on measured IC50, 1 or 2 ? Selection: enter the item's label.
1
(1: 333 nM, 2: 7380 nM)

###

Target: CDK1/Cyclin B1 (Homo sapiens, UniProt P06493)
Test: CDK1/Cyclin B1 Biochemical Assay (TR-FRET), 0.015 mM ATP
Details: 0.15 μM Rb (Ser780)-biotin substrate, pH7.0, 60 min preincubation, 120 min reaction, room temperature
READOUT_NAME: IC50 (nM)

[
  {
    "MOLECULE": "CC(C)NC(=O)O[C@H]1CC[C@@H](c2cc(Nc3ccc4c(c3F)C(CCO)S(=O)(=O)N4CCO)n[nH]2)C1 (relative stereo)",
    "IC50 (nM)": 96
  },
  {
    "MOLECULE": "O=C(NC1COC1)O[C@H]1CC[C@@H](c2cc(Nc3ccc4c(c3F)CNS4(=O)=O)n[nH]2)C1 (relative stereo)",
    "IC50 (nM)": 666
  },
  {
    "MOLECULE": "CC(C)NC(=O)O[C@H]1CC[C@@H](c2cc(Nc3cc(F)c4c(c3)CS(=O)(=O)N4C3COC3)n[nH]2)C1 (relative stereo)",
    "IC50 (nM)": 56
  },
  {
    "MOLECULE": "CC(C)NC(=O)O[C@H]1CC[C@@H](c2cc(Nc3ccc4c(c3)N(C)S(=O)(=O)C4)n[nH]2)C1 (relative stereo)",
    "IC50 (nM)": 26
  }
]

a = COCC(C)(C)NC(=O)O[C@H]1CC[C@@H](c2cc(Nc3ccc4c(c3F)CN(C3CC3)S4(=O)=O)n[nH]2)C1 (relative stereo)
b = CN1c2ccc(Nc3cc([C@@H]4CC[C@H](OC(=O)NC5(C)CCOC5)C4)[nH]n3)cc2CS1(=O)=O (relative stereo)
c = Cc1cc2c(cc1Nc1cc([C@@H]3CC[C@H](OC(=O)NC(C)C)C3)[nH]n1)CS(=O)(=O)N2C (relative stereo)
d = CC[C@H](C)NC(=O)O[C@H]1CC[C@@H](c2cc(Nc3ccc4c(c3Cl)CNS4(=O)=O)n[nH]2)C1 (relative stereo)
# desc sort on IC50 across 4 molecules Give the labels in the order specified.
c, d, a, b
(c: 7260 nM, d: 512 nM, a: 265 nM, b: 158 nM)

a = COc1c(Nc2cc([C@@H]3CC[C@H](OC(=O)NC(C)C)C3)[nH]n2)ccc2c1S(=O)(=O)NC2(C)C (relative stereo)
b = O=C(NC1(CO)CC1)O[C@H]1CC[C@@H](c2cc(Nc3ccc4c(c3F)CNS4(=O)=O)n[nH]2)C1 (relative stereo)
c = CC(C)NC(=O)O[C@H]1CC[C@@H](c2cc(Nc3ccc4c(c3F)C(C)(C)NS4(=O)=O)n[nH]2)C1 (relative stereo)
Order the entries by their reported IC50, beginning at the minimum. In plain terms: list the labels in the order you were asked to.
b, a, c

P = C[C@H]1[C@H](O)CN1C(=O)O[C@H]1CC[C@@H](c2cc(Nc3ccc4c(c3F)CS(=O)(=O)N4C)n[nH]2)C1 (relative stereo)
Q = CC(C)NC(=O)O[C@H]1CC[C@@H](c2cc(Nc3ccc4c(c3F)CN(C3CCNC3=O)S4(=O)=O)n[nH]2)C1 (relative stereo)
R = CC1(NC(=O)O[C@H]2CC[C@@H](c3cc(Nc4ccc5c(c4F)CS(=O)(=O)N5C4CC4)n[nH]3)C2)CC1 (relative stereo)
S = CC(C)NC(=O)O[C@H]1CC[C@@H](c2cc(Nc3cc4c(cc3F)S(=O)(=O)NC4(C)C)n[nH]2)C1 (relative stereo)
// ranking: key=IC50, reverse=True Please list each label once, in the requested order.
S, Q, P, R
(S: 1090 nM, Q: 638 nM, P: 361 nM, R: 36 nM)

I = CC(C)NC(=O)O[C@H]1CC[C@@H](c2cc(Nc3ccc4c(c3F)CS(=O)(=O)N4CC(F)(F)F)n[nH]2)C1 (single isomer, unassigned) [Example 263b]
II = CCNC(=O)O[C@H]1CC[C@@H](c2cc(Nc3ccc4c(c3F)CNS4(=O)=O)n[nH]2)C1 (relative stereo)
Name the one with the greater IC50 value, either I or II as given. Mark your selection by writing its label.
II
(II: 157 nM, I: 91 nM)

1 = CC(C)NC(=O)O[C@H]1CC[C@@H](c2cc(Nc3cc4c(cc3F)N(CCO)S(=O)(=O)C4)n[nH]2)C1 (single isomer, unassigned) [Example 296b]
2 = CC(C)NC(=O)O[C@H]1CC[C@@H](c2cc(Nc3ccc4c(c3)C(C)NS4(=O)=O)n[nH]2)C1 (single isomer, unassigned) [Example 321c]
Returns: the label, 1 or 2 , whose recorded IC50 is the lower number. Give the chosen item's label as your response.
2
(2: 26 nM, 1: 497 nM)

P = CC(CC(F)(F)F)NC(=O)O[C@H]1CC[C@@H](c2cc(Nc3ccc4c(c3)CS(=O)(=O)N4C)n[nH]2)C1 (relative stereo)
Q = CC1(NC(=O)O[C@H]2CC[C@@H](c3cc(Nc4ccc5c(c4Cl)CNS5(=O)=O)n[nH]3)C2)CC1 (racemic) [Example 40]
From the recorded data, which exceeds the other in IC50: P or Q ? Give the label under which the chosen entry appears.
Q

A = Cc1c(Nc2cc([C@@H]3CC[C@H](OC(=O)NC(C)C)C3)[nH]n2)ccc2c1CNS2(=O)=O (relative stereo)
B = COCC(C)NC(=O)O[C@H]1CC[C@@H](c2cc(Nc3ccc4c(c3F)CN(C)S4(=O)=O)n[nH]2)C1 (relative stereo)
Pick one: A or B . Which has the bigger IC50 number? Provide the label of your selected option as the answer.
B
(B: 544 nM, A: 81 nM)
